Procedure Text: Half life in mouse brain
Assay type: ADME, tissue-based
The following compounds are listed with their measured half-life values.
Could you give me the number in h? Just the number is fine.

Below: 3 compounds and their reported half-life.
compound_string=COc1ccc(C[C@H](N=C(N)N)C(=O)N2CCC[C@@H]2C(=O)NCC(=O)N[C@@H](Cc2c[nH]c3ccccc23)C(=O)N[C@@H](Cc2ccccc2)C(N)=O)cc1 value_units=h reading=7.45
compound_string=COc1ccc(C[C@H](NC(=N)N)C(=O)N2CCC[C@@H]2C(=O)NCC(=O)N[C@@H](Cc2c[nH]c3ccccc23)C(=O)N[C@@H](Cc2ccc(Cl)cc2)C(N)=O)cc1 value_units=h reading=6.82
compound_string=COc1ccc(C[C@H](N=C(N)N)C(=O)N2CCC[C@H]2C(=O)N[C@@H](Cc2c[nH]c3ccccc23)C(=O)N[C@@H](Cc2ccc(Cl)cc2)C(N)=O)cc1 value_units=h reading=3.17

Continue with the next compound.
Bench note: what half-life did COc1ccc(C[C@H](N=C(N)N)C(=O)N2CCC[C@H]2C(=O)N[C@@H](Cc2c[nH]c3ccccc23)C(=O)N[C@@H](Cc2ccccc2)C(N)=O)cc1 show? 4.3
